Values compiled from patent US20250215013A1.

Exercise: for every item that follows, state its recorded pIC50.
biological target: recombinant poly(ADP-ribose) polymerase 1 (PARP1) (Homo sapiens (Human), UniProt P09874); assay: biochemical
Sequence (P09874 whole entry): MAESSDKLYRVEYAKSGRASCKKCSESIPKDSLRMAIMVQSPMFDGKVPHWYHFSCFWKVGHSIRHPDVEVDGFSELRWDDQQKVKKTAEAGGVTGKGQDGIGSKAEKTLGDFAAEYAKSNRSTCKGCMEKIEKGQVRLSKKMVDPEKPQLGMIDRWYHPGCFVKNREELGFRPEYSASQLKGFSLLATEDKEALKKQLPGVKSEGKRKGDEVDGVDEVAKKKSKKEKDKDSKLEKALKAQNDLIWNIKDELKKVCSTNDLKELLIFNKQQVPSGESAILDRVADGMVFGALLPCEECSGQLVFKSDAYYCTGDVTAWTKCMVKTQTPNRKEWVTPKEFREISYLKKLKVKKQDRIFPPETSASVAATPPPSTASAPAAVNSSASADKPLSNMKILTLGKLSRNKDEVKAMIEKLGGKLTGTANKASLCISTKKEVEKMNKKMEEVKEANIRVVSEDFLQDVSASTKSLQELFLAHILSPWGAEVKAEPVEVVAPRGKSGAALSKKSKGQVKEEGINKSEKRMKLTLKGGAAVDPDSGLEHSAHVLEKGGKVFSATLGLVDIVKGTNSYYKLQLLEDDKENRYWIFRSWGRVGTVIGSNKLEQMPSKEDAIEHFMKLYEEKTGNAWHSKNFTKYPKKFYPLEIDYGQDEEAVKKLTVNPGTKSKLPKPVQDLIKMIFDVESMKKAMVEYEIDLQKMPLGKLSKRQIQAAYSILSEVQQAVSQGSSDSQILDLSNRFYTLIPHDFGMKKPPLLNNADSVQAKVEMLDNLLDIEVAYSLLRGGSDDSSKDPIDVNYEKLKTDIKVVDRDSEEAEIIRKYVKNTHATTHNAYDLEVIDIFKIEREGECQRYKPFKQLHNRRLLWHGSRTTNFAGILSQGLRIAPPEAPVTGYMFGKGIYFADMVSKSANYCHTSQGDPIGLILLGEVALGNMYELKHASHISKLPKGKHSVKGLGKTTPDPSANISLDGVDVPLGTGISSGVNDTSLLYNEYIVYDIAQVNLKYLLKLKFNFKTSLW
// pIC50: -log10(molar conc.)

Exercise: Give pIC50 for this entry on recombinant poly(ADP-ribose) polymerase 1 (PARP1) (Homo sapiens (Human), UniProt P09874): CNC(=O)c1ccc(C2CCN(Cc3ccc4c([nH]c(=O)c5occc54)c3F)CC2)c(F)n1
Solution: 9.08

Exercise: Give pIC50 for this entry on recombinant poly(ADP-ribose) polymerase 1 (PARP1) (Homo sapiens (Human), UniProt P09874): O=C(NCC(F)F)c1ccc(N2CCN(Cc3ccc4c([nH]c(=O)c5occc54)c3F)CC2)c(F)n1
Solution: 9.25

###

readout: pIC50
// pIC50: -log10(molar conc.)

Exercise: Give pIC50 for this entry on recombinant poly(ADP-ribose) polymerase 1 (PARP1) (Homo sapiens (Human)): CNC(=O)c1ccc(N2CCN(Cc3ccc4c([nH]c(=O)c5cncn54)c3F)CC2)c(Cl)n1
Solution: 9.17

Exercise: Give pIC50 for this entry on recombinant poly(ADP-ribose) polymerase 1 (PARP1) (Homo sapiens (Human)): O=C(NC1CC1)c1ccc(N2CCN(Cc3ccc4c([nH]c(=O)c5c(F)cnn54)c3F)CC2)c(F)n1
Solution: 9.64

Exercise: Give pIC50 for this entry on recombinant poly(ADP-ribose) polymerase 1 (PARP1) (Homo sapiens (Human)): CNC(=O)c1ccc(N2CCN(Cc3ccc4c([nH]c(=O)c5cn[nH]c54)c3F)CC2)c(C)n1
Solution: 9.19

Exercise: Give pIC50 for this entry on recombinant poly(ADP-ribose) polymerase 1 (PARP1) (Homo sapiens (Human)): CNC(=O)c1ccc(N2CCN(Cc3cc4[nH]c(=O)n5nccc5c4cc3F)CC2)c(F)n1
Solution: 8.73

Exercise: Give pIC50 for this entry on recombinant poly(ADP-ribose) polymerase 1 (PARP1) (Homo sapiens (Human)): CNC(=O)c1ccc(N2CCN(Cc3ccc4c(c3)[nH]c(=O)c3ncn(C)c34)CC2)c(C)n1
Solution: 8.35

Exercise: Give pIC50 for this entry on recombinant poly(ADP-ribose) polymerase 1 (PARP1) (Homo sapiens (Human)): CNC(=O)c1ccc(N2CCN(Cc3ccc4c(c3)[nH]c(=O)c3[nH]ccc34)CC2)c(C)n1
Solution: 8.08

Exercise: Give pIC50 for this entry on recombinant poly(ADP-ribose) polymerase 1 (PARP1) (Homo sapiens (Human)): CNC(=O)c1ccc(N2CCN(Cc3ccc4c([nH]c(=O)n5ccnc45)c3F)CC2)c(F)n1
Solution: 8.65

Exercise: Give pIC50 for this entry on recombinant poly(ADP-ribose) polymerase 1 (PARP1) (Homo sapiens (Human)): CNC(=O)c1ccc(N2CCN(Cc3ccc4c([nH]c(=O)c5c(F)cnn54)c3F)CC2)c(Cl)n1
Solution: 9.55

Exercise: Give pIC50 for this entry on recombinant poly(ADP-ribose) polymerase 1 (PARP1) (Homo sapiens (Human)): CNC(=O)c1ccc(N2CCN(Cc3ccc4c(c3)[nH]c(=O)c3ocnc34)CC2)c(C)n1
Solution: 8.73

Exercise: Give pIC50 for this entry on recombinant poly(ADP-ribose) polymerase 1 (PARP1) (Homo sapiens (Human)): CNC(=O)c1ccc(N2CCN(Cc3cc4[nH]c(=O)c5occc5c4cc3C)CC2)c(F)n1
Solution: 8.23

###

molecular target: recombinant poly(ADP-ribose) polymerase 2 (PARP2); experiment: PARP2 chemiluminescent assay; format: biochemical; conditions: inhibition of PARP2 enzyme activity, chemiluminescence
readout: IC50

Exercise: Fill in IC50 for record CNC(=O)c1ccc(N2CCN(Cc3ccc4c([nH]c(=O)c5c(C)cnn54)c3F)CC2)c(C(F)(F)F)n1
Solution: > 10000 nM

Exercise: Fill in IC50 for record CNC(=O)c1ccc(N2CCN(Cc3ccc4c(c3)[nH]c(=O)c3ocnc34)CC2)c(C)n1
Solution: > 10000 nM

Exercise: Fill in IC50 for record CCNC(=O)c1ccc(N2CCN(Cc3ccc4c([nH]c(=O)n5ccnc45)c3F)CC2)c(F)n1
Solution: > 10000 nM

Exercise: Fill in IC50 for record CNC(=O)c1ccc(N2CCN(Cc3ccc4c(c3)[nH]c(=O)c3ccoc34)CC2)cn1
Solution: 273 nM

###

system: MDA-MB-436 cells; test: Growth inhibition assay against BRCA mutant human breast cancer MDA-MB-436 cell line (CCK-8); format: cell-based; conditions: Homo sapiens, MDA-MB-436, […], proliferation of MDA-MB-436 cells, 7 days
pIC50: −log10 of the molar value.
Exercise: for every item that follows, state its recorded pIC50.

Exercise: Fill in pIC50 for record CNC(=O)c1ccc(N2CCN(Cc3ccc4c(c3)[nH]c(=O)c3oncc34)CC2)c(C)n1 [Example 30]
Solution: < 7.00

Exercise: Fill in pIC50 for record CNC(=O)c1ccc(N[C@@H]2CCN(Cc3ccc4c([nH]c(=O)c5c(C)cnn54)c3F)C2)cn1 [Example 134]
Solution: < 7.00

Exercise: Fill in pIC50 for record CNC(=O)c1ccc(N2CCN(Cc3ccc4c([nH]c(=O)c5c(C)cnn54)c3Cl)CC2)c(C)n1 [Example 175]
Solution: < 7.00

###

biological target: recombinant poly(ADP-ribose) polymerase 1 (PARP1) (Homo sapiens (Human))
Exercise: for every item that follows, state its recorded IC50.
Quick note: give the figure in nM, leave out the unit.

Exercise: Fill in IC50 for record Cc1nc(C(=O)NC2CC2)ccc1N1CCN(Cc2ccc3c([nH]c(=O)n4ccnc34)c2F)CC1
Solution: 4.53

Exercise: Fill in IC50 for record CNC(=O)c1ccc(N2CCN(Cc3ccc4c([nH]c(=O)c5cocc54)c3F)CC2)c(F)n1
Solution: 0.47

Exercise: Fill in IC50 for record CNC(=O)c1ccc(N2CCN(Cc3ccc4c([nH]c(=O)c5cn[nH]c54)c3F)CC2)c(F)n1
Solution: 0.95

Exercise: Fill in IC50 for record CNC(=O)c1ccc(N2CCN(Cc3cc4[nH]c(=O)c5c(C)cnn5c4cc3F)CC2)c(F)n1
Solution: 0.61

Exercise: Fill in IC50 for record CNC(=O)c1ccc(N2CCN(Cc3ccc4c([nH]c(=O)c5c(C)cnn54)c3F)CC2)c(C#N)n1
Solution: 0.48

Exercise: Fill in IC50 for record CNC(=O)c1ccc(N2CCN(Cc3ccc4c(c3)[nH]c(=O)c3cocc34)CC2)c(F)n1
Solution: 0.46

Exercise: Fill in IC50 for record CNC(=O)c1ccc(N2CCN(Cc3cc(F)c4c(c3)[nH]c(=O)c3cncn34)CC2)c(F)n1
Solution: 0.25

Exercise: Fill in IC50 for record CCNC(=O)c1ccc(N2CCN(Cc3ccc4c([nH]c(=O)n5ccnc45)c3F)CC2)c(C)n1
Solution: 3.86

Exercise: Fill in IC50 for record CNC(=O)c1ccc(N2CCN(Cc3cc4[nH]c(=O)c5occc5c4cc3F)CC2)c(F)n1
Solution: 1.89

Exercise: Fill in IC50 for record CCNC(=O)c1ccc(N2CCN(Cc3ccc4c([nH]c(=O)c5c(F)cnn54)c3F)CC2)c(F)n1
Solution: 0.24

Exercise: Fill in IC50 for record CNC(=O)c1ccc(C2=CCN(Cc3ccc4c([nH]c(=O)c5c(C)cnn54)c3F)CC2)c(F)n1
Solution: 0.26

Exercise: Fill in IC50 for record CNC(=O)c1ccc(N2CCN(Cc3cc4[nH]c(=O)c5c(F)cnn5c4cc3F)CC2)c(Cl)n1
Solution: 0.5

Exercise: Fill in IC50 for record CNC(=O)c1ccc(N2CCN(Cc3cc4[nH]c(=O)c5c(F)cnn5c4cc3F)CC2)c(F)n1
Solution: 0.32

Exercise: Fill in IC50 for record CCNC(=O)c1ccc(N2CCN(Cc3ccc4c([nH]c(=O)c5occc54)c3F)CC2)c(F)n1
Solution: 1.72

Exercise: Fill in IC50 for record CNC(=O)c1ccc(N2CCN(Cc3ccc4c(c3)[nH]c(=O)c3nc[nH]c34)CC2)c(C)n1
Solution: 3.39

###

Exercise: for every item that follows, state its recorded pIC50.
molecular target: recombinant poly(ADP-ribose) polymerase 1 (PARP1) (Homo sapiens (Human), UniProt P09874)
// pIC50: -log10(molar conc.)

Exercise: Fill in pIC50 for record CNC(=O)c1ccc(N2CCN(Cc3ccc4c(c3)[nH]c(=O)c3c(F)c(C)nn34)CC2)c(C)n1
Solution: 9.05

Exercise: Fill in pIC50 for record CNC(=O)c1ccc(N2CCN(Cc3ccc4c(c3)[nH]c(=O)c3ncoc34)CC2)c(C)n1
Solution: 8.95

Exercise: Fill in pIC50 for record CNC(=O)c1ccc(N2CCN(Cc3ccc4c(c3)[nH]c(=O)c3c4cnn3C)CC2)c(C)n1
Solution: 8.48

Exercise: Fill in pIC50 for record CNC(=O)c1ccc(N2CCN(Cc3ccc4c([nH]c(=O)n5cc(C)nc45)c3F)CC2)c(F)n1
Solution: 9.08

Exercise: Fill in pIC50 for record CNC(=O)c1ccc(N2CCN(C(C)c3ccc4c([nH]c(=O)c5c(C)cnn54)c3F)CC2)c(F)n1 (centres unmarked)
Solution: 9.17

Exercise: Fill in pIC50 for record CNC(=O)c1ccc(N2CCN(Cc3cc4[nH]c(=O)c5cn(C)nc5c4cc3F)CC2)c(C)n1
Solution: 8.24

Exercise: Fill in pIC50 for record CNC(=O)c1ccc(N2CCN(Cc3ccc4c5c(c(=O)[nH]c4c3)CNC5)CC2)c(C)n1
Solution: 8.48

Exercise: Fill in pIC50 for record CNC(=O)c1ccc(N2CCN(Cc3ccc4c([nH]c(=O)c5c(C(F)(F)F)cnn54)c3F)CC2)c(F)n1
Solution: 9.30
